- Test system: Hepatitis C virus
- protocol.details: Antiviral activity against HCV after 72 hrs by stable luciferase reporter gene assay
- Format: functional, organism-based, Hepacivirus hominis
Measured EC90 accompanies every entry in the list below.
Unit µM implied. Number only.

1) C/C=C/C[C@@H](C)[C@@H](O)[C@H]1C(=O)N[C@@H](CC)C(=O)N(C)CC(=O)N(C)[C@@H](CC(C)C)C(=O)N[C@@H](C(C)C)C(=O)N(C)[C@@H](CC(C)C)C(=O)N[C@@H](C)C(=O)N[C@H](CCCN)C(=O)N(C)[C@@H](CC(C)C)C(=O)N(C)[C@@H](CC(C)C)C(=O)N(C)[C@@H](C(C)C)C(=O)N1C; 6.74

Query string: Give EC90 for the following compound: C/C=C/C[C@@H](C)[C@@H](O)[C@H]1C(=O)N[C@@H](CC)C(=O)N(C)CC(=O)N(C)[C@@H](CC(C)C)C(=O)N[C@@H](C(C)C)C(=O)N(C)[C@@H](CC(C)C)C(=O)N[C@@H](C)C(=O)N[C@H](CCC#N)C(=O)N(C)[C@@H](CC(C)C)C(=O)N(C)[C@@H](CC(C)C)C(=O)N(C)[C@@H](C(C)C)C(=O)N1C
Result string: 0.27
